Hello, the source for this data is patent US20030087827A1, in case you need it.

Listing of entries alongside the reported Ki.
- study_target: T1, proprotein convertase PC2
- T1 sequence (P16519 110-638, species assumed, looked up): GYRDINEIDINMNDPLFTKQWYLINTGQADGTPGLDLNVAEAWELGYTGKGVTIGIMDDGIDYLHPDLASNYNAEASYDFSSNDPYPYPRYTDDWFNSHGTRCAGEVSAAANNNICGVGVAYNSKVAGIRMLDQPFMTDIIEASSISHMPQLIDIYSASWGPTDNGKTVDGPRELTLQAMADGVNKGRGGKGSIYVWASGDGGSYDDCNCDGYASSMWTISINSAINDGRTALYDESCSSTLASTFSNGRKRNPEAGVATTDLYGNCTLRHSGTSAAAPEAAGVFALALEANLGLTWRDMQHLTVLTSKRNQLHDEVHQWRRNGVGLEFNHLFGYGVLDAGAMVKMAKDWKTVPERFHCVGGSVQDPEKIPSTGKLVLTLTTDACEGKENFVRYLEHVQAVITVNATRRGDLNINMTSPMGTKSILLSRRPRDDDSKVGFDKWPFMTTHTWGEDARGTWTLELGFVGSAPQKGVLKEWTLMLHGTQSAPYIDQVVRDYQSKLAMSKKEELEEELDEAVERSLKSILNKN
- assay_protocol: enzyme inhibition, pERTKR-MCA hydrolysis (fluorescence), competitive Ki
result_type: Ki (µM)

>  <binder>
Ac-HHKRRR-NH2 (L-hexapeptide) [Ac-HHKRRR-NH2]

>  <result_type>
Ki

>  <quantitative_readout>
235

$$$$
>  <binder>
Ac-MHKRRR-NH2 (L-hexapeptide) [Ac-MHKRRR-NH2]

>  <result_type>
Ki

>  <quantitative_readout>
216

$$$$
>  <binder>
Ac-KHKRRR-NH2 (L-hexapeptide) [Ac-KHKRRR-NH2]

>  <result_type>
Ki

>  <quantitative_readout>
280

$$$$
>  <binder>
Ac-HRKRRR-NH2 (L-hexapeptide) [Ac-HRKRRR-NH2]

>  <result_type>
Ki

>  <quantitative_readout>
309

$$$$
>  <binder>
Ac-KRKRRR-NH2 (L-hexapeptide) [Ac-KRKRRR-NH2]

>  <result_type>
Ki

>  <quantitative_readout>
391

$$$$
>  <binder>
Ac-RRKRRR-NH2 [Ac-RRKRRR-NH2]

>  <result_type>
Ki

>  <quantitative_readout>
461

$$$$
>  <binder>
Ac-RHKRRR-NH2 (L-hexapeptide) [Ac-RHKRRR-NH2]

>  <result_type>
Ki

>  <quantitative_readout>
152

$$$$
